# Test system: Mycobacterium tuberculosis
# METHOD_DESCRIPTION: Antimycobacterial activity against isoniazid, rifampin, ethambutol-resistant Mycobacterium tuberculosis after 7 days by microplate Alamar blue assay
# Format: functional
# CONDITION_CONTEXT: 168 h
Assign MIC to each entry below.

The compound NNC(=O)c1ccncc1 [ISONIAZID] , tested on Mycobacterium tuberculosis, showed MIC of ≥ 2 µg/mL

The compound CN[C@@H]1[C@H](O[C@H]2[C@H](O[C@H]3[C@H](O)[C@@H](O)[C@H](N=C(N)N)[C@@H](O)[C@@H]3N=C(N)N)O[C@@H](C)[C@]2(O)C=O)O[C@@H](CO)[C@H](O)[C@H]1O [STREPTOMYCIN] , tested on Mycobacterium tuberculosis, showed MIC of ≤ 2 µg/mL

The compound CC[C@@H](CO)NCCN[C@@H](CC)CO [ETHAMBUTOL] , tested on Mycobacterium tuberculosis, showed MIC of ≥ 8 µg/mL

The compound CC1COc2c(N3CCN(C)CC3)c(F)cc3c(=O)c(C(=O)O)cn1c23 (stereo not given) [OFLOXACIN] , tested on Mycobacterium tuberculosis, showed MIC of ≤ 2 µg/mL

The compound CO[C@H]1/C=C/O[C@@]2(C)Oc3c(C)c(O)c4c(O)c(c(/C=N/N5CCN(C)CC5)c(O)c4c3C2=O)NC(=O)/C(C)=C\C=C\[C@H](C)[C@H](O)[C@@H](C)[C@@H](O)[C@@H](C)[C@H](OC(C)=O)[C@@H]1C [RIFAMPIN] , tested on Mycobacterium tuberculosis, showed MIC of ≥ 2 µg/mL

* * *

# Test system: Mycobacterium tuberculosis
# METHOD_DESCRIPTION: Antimycobacterial activity against isoniazid, rifampin, ethambutol, streptomycin-resistant Mycobacterium tuberculosis after 7 days by microplate Alamar blue assay
# Type: functional
# CONDITION_CONTEXT: 168 h
READOUT_LABEL: MIC

Briefly, MIC measured for CC[C@@H](CO)NCCN[C@@H](CC)CO [ETHAMBUTOL] : ≥ 8 µg/mL

Briefly, MIC measured for CN[C@@H]1[C@H](O[C@H]2[C@H](O[C@H]3[C@H](O)[C@@H](O)[C@H](N=C(N)N)[C@@H](O)[C@@H]3N=C(N)N)O[C@@H](C)[C@]2(O)C=O)O[C@@H](CO)[C@H](O)[C@H]1O [STREPTOMYCIN] : ≥ 8 µg/mL

Briefly, MIC measured for CO[C@H]1/C=C/O[C@@]2(C)Oc3c(C)c(O)c4c(O)c(c(/C=N/N5CCN(C)CC5)c(O)c4c3C2=O)NC(=O)/C(C)=C\C=C\[C@H](C)[C@H](O)[C@@H](C)[C@@H](O)[C@@H](C)[C@H](OC(C)=O)[C@@H]1C [RIFAMPIN] : ≥ 2 µg/mL

Briefly, MIC measured for NNC(=O)c1ccncc1 [ISONIAZID] : ≥ 2 µg/mL

Briefly, MIC measured for CC1COc2c(N3CCN(C)CC3)c(F)cc3c(=O)c(C(=O)O)cn1c23 (stereo not given) [OFLOXACIN] : ≤ 2 µg/mL
